# protocol_summary: Cell Viability - LYMP2-007 (AID 979);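 further: cells exposed to compound for 24 h before reading; nearly all actives have a fitted effect of over 60% in size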
# test_settings: LYMP2-007 lymphoblastoid cell viability; series mostly up to 92.2 µM
# Text: NIH Chemical Genomics Center [NCGC] NIH Molecular Libraries Screening Centers Network [MLSCN] National Institutes of Environmental Health Sciences [NIEHS] National Toxicology Program [NTP] We have developed a 1536-well cell-based assay for quantitative high throughput screening (qHTS) against a number of cell lines to determine in vitro cytotoxicity of small molecules. […] 8. Detection; Luminescence; Viewlux plate reader […]
Inconclusive results are not listed. Active and inactive are the calls of the source. The call rests on the fitted dose curve; in most records, active means well fitted cell-killing curve with a large enough effect; inconclusive means small, poorly fitted or top-dose-only effect; inactive means flat fitted curve, though single readings scatter.
Hi there, use one of these labels in your reply, thanks! active, inactive

Study these solved cases before continuing.
molecule=O=C1OC2(c3cc(Br)c(O)c(Br)c3Oc3c2cc(Br)c(O)c3Br)c2c(Cl)c(Cl)c(Cl)c(Cl)c21 class=inactive
molecule="CN1[C@H]2CC(OC(=O)[C@H](CO)c3ccccc3)C[C@H]1[C@H]1O[C@H]12 (stereo not given in full)" class=inactive
molecule=O=C(OCC(COC(=O)c1ccccc1)(COC(=O)c1ccccc1)COC(=O)c1ccccc1)c1ccccc1 class=inactive
molecule=Oc1ccc2cc(SSc3ccc4cc(O)ccc4c3)ccc2c1 class=active

Now for a further molecule.
Kindly provide the recorded test outcome for the following molecule: O=C=Nc1ccc(Cc2ccc(N=C=O)cc2)cc1
inactive

====

# protocol_summary: AP1 Signaling Pathway (AID 357);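 further: ME-180 reporter cells stimulated with EGF at its EC50 level; on the % scale 0 is the no-effect control and ±100 the full control effect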
# test_settings: ME-180 (cervical carcinoma) AP-1-bla reporter, EGF-induced, beta-lactamase ratio, 5 h; at 17.2 µM (top of the series) unless noted
Records with an inconclusive call do not appear. Active and inactive are the calls of the source. Calls come from the whole dose curve; as a rule, active = well fitted curve in either direction with a large enough effect (not every such curve was filed as active); inconclusive = small, poorly fitted or top-dose-only effect, or another doubt; inactive = flat fitted curve, though single readings scatter.
Measured activity change, negative = inhibition of individual entries

compound="COC(=O)C(NC(C)=O)(Nc1ccccn1)C(F)(F)F (stereo unspecified)" data_value="-1.38% (inactive)"
compound=O=C(OCC#CCSc1nnc(-c2ccccc2)o1)c1cccs1 data_value="-3.3% (inactive)"
compound=CC(C)CNc1nc2c(c(=O)n(C)c(=O)n2C)n1Cc1cccc(Br)c1 data_value="-13.5% (inactive)"
compound=Cc1cc(/C=N\O)c(C)n1-c1ccncc1 data_value="0.0567% (inactive)"

Reported activity change, negative = inhibition, compound CC(O)c1n(C)c(Cl)c[n+]1C (stereo unspecified) : ____
0.68% (inactive)

Reported activity change, negative = inhibition, compound O=c1c2c3c(sc2n2cnnc2n1Cc1ccccc1)CN(Cc1ccccc1)CC3 : ____
0.127% (inactive)

====

# System: SC27B
# protocol_summary: qHTS profiling for inhibitors of Plasmodium falciparum proliferation (AID 504749); further: nearly all actives have a fitted effect of over 60% in size; further: potency means the concentration at half of the fitted maximal effect
# test_settings: P. falciparum in erythrocytes, SYBR Green DNA, 72 h; series mostly up to 28.7 µM
Results filed as inconclusive are left out. Activity calls are given as the source filed them. Calls come from the whole dose curve; as a rule, active = well fitted inhibition curve with a large enough effect; inconclusive = small, poorly fitted or top-dose-only effect; inactive = flat fitted curve, though single readings scatter.
reported_metric: Potency

Record excerpt, results attached:
molecule="CC1C(=O)C(=O)C=CN1C (stereo unspecified)" data_value=inactive
molecule="CC1(C(=O)O)CCC2(C)CCC3(C)C(=CC(=O)C4C5(C)CCC(O)C(C)(C)C5CCC43C)C2C1 (stereo unspecified)" data_value=inactive
molecule=CC[C@@]1(O)C[C@H](O[C@H]2C[C@@H](N(C)C)[C@@H](O[C@H]3C[C@@H](O)[C@@H](O[C@H]4CCC(=O)[C@@H](C)O4)[C@@H](C)O3)[C@@H](C)O2)c2c(cc3c(c2O)C(=O)c2c(O)cccc2C3=O)[C@H]1C(=O)OC data_value="316 nM (active)"
molecule="C[C@]12CC[C@@H]3c4ccc(O)cc4C[C@@H](CCCCCCCCCS(=O)CCCC(F)(F)C(F)(F)F)C3[C@@H]1CC[C@@H]2O (stereo partly specified)" data_value="2820 nM (active)"
molecule="OCCOC[C@H]1O[C@H](OCCO)[C@H](OCCO)[C@@H](OCCO)[C@@H]1OCCO (tested in a mixture with another compound)" data_value=inactive
molecule="OC[C@@H](O)C(O[C@@H]1O[C@@H](CO)[C@H](O)[C@H](O)[C@H]1O)[C@H](O)[C@@H](O)CO (stereo partly specified)" data_value=inactive

Reported Potency, molecule CC(=O)CC(c1ccccc1)C1C(=O)Oc2ccccc2C1=O (stereo unspecified) : ____
inactive

Reported Potency, molecule CC[C@H](C)[C@H]1O[C@]2(CC[C@@H]1C)C[C@@H]1C[C@@H](C/C=C(\C)[C@H](O[C@@H]3C[C@H](OC)[C@H](O[C@@H]4C[C@H](OC)[C@@H](O)[C@H](C)O4)[C@H](C)O3)[C@@H](C)/C=C/C=C3\CO[C@@H]4[C@H](O)C(C)=C[C@@H](C(=O)O1)[C@]34O)O2 : ____
1000 nM (active)

Reported Potency, molecule C[C@]12CC[C@@H]3c4ccc(O)cc4CC[C@H]3[C@@H]1C[C@H](O)C2O (stereo partly specified) : ____
inactive

Reported Potency, molecule C=C1NC(=O)c2cc(CN(C)c3ccc(C(=O)N[C@@H](CCC(=O)O)C(=O)O)s3)ccc2N1 : ____
inactive

Reported Potency, molecule COC(c1ccccc1)(c1ccccc1)C(Oc1nc(C)cc(C)n1)C(=O)O (stereo unspecified) : ____
inactive

Reported Potency, molecule O=C(O)Cc1sc(-c2ccc(Cl)cc2)nc1-c1ccccc1 : ____
inactive

Reported Potency, molecule C[n+]1c2cc(N)ccc2cc2ccc(N)cc21 : ____
1580 nM (active)

Reported Potency, molecule CC1CCC(O)C/C1=C\C=C1/CCCC2(C)C1CCC2C(C)/C=C/C(C)C(C)C (stereo unspecified) : ____
inactive

Reported Potency, molecule CO/N=C(/C(=O)N[C@@H]1C(=O)N2C(C(=O)O)=C(C[n+]3ccc(N)n3CCO)CS[C@H]12)c1csc(N)n1 : ____
inactive

Reported Potency, molecule CC1CN(c2c(F)c(N)c3c(=O)c(C(=O)O)cn(C4CC4)c3c2F)CC(C)N1 (stereo unspecified) : ____
inactive
